inhibition at 10 µM for assorted compounds
Target: human GPR84 receptor (Homo sapiens, UniProt Q9NQS5)
Construct: host or cells: HEK293, transient transfection
Sequence (Q9NQS5 whole entry): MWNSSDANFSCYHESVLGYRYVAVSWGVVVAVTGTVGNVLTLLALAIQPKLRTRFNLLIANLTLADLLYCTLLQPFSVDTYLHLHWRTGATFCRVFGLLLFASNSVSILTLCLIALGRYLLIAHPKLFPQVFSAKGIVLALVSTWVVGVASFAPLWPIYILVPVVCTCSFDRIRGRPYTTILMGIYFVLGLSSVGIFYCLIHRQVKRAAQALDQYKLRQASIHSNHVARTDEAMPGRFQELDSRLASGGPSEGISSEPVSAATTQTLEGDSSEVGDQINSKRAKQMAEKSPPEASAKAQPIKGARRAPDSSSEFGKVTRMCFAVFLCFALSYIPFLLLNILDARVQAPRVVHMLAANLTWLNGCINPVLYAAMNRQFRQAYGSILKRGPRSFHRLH
Test: Gαi biosensor BRET assay in HEK293 cells (antagonism of ZQ-16)
Assay type: cell-based
Conditions: HEK293, single concentration 10 μM (designated F)
Value Kind: inhibition at 10 µM

• Cc1ccc(C#CCNCc2ccccc2)cc1-c1cn(CC2CCCCO2)nn1 (centres unmarked) = ≤ 25%
• Cc1cc(C2CCN(c3ccccn3)CC2)ccc1-c1cn(CC2CCCCO2)nn1 (centres unmarked) = ≤ 25%
• Cc1cc(N2CC(C)(CO)C2)cnc1-c1cn(CC2Oc3ccccc3O2)nn1 = > 75%
• Cc1cc(C#CC2CC2)ccc1-c1cn(CC2CCC(C)(C)O2)nn1 (centres unmarked) = > 75%
• COC(c1cn(CC2CCCCO2)nn1)c1cc(C#CC2CC2)ccc1F (centres unmarked) = 50 to 75%
• CNC1CCCN(c2ccc(-c3cn(CC4CCCCO4)nn3)c(C)c2)C1 (centres unmarked) = ≤ 25%
• CC(C)Oc1cc(N2CC(C)(C)C2)cnc1-c1cn(CC2OCC(C)(C)CO2)nn1 = > 75%
• Cc1cc(N2CCN(Cc3ccccn3)CC2)ccc1-c1cn(CC2OCC(C)(C)O2)nn1 (centres unmarked) = 50 to 75%
• CC(C)(O)c1cc(C#CC2CC2)ccc1-c1cn(CC2CCCCO2)nn1 (centres unmarked) = ≤ 25%
• Cc1ccc(-c2cccc(-c3nnn(CC4CCCCO4)c3C)c2)cn1 (centres unmarked) = ≤ 25%
• CC1(C)COC(Cn2cc(-c3ncc(N4CC(C)(CO)C4)cc3OC3CC3)nn2)OC1 = > 75%

---

Biological target: human GPR84 receptor (Homo sapiens)
Construct: host or cells: HEK293, transient transfection
Experiment: Gαi biosensor BRET assay in HEK293 cells (antagonism of ZQ-16)
Type: cell-based
Details: HEK293, single concentration 2 μM (designated A)
Value Kind: inhibition at 2 µM

• Cc1ccc(C#CC2CC2)nc1-c1cn(Cc2ccccn2)nn1 [Compound I-480] = ≤ 25%
• Cc1cc(C#CCn2cc(-c3ccc(N(C)C)cc3)nn2)cnc1-c1cn(CC2CCCCO2)nn1 (stereo not drawn) [Compound I-712] = > 75%
• Cc1cc(C#CCNC2CC2)ccc1-c1cn(CC2OCC(C)(C)CO2)cn1 [Compound I-820] = > 75%
• CC1(C)COC(Cn2cc(-c3ncc(C#CCOC4CC4)cc3OC3CC3)nn2)OC1 [Compound I-758] = > 75%
• CO[C@H](c1cn(C[C@@H]2CCCCO2)nn1)c1cc(C#CC2CC2)ccc1C [Compound I-512] = > 75%
• Cc1cc2ccc(N3CC(C)(C)C3)cc2nc1-c1cn(CC2CCCCO2)nn1 (stereo not drawn) [Compound I-622] = ≤ 25%
• Cc1ccc(C#CC2CC2)cc1Cc1cn(CC2OCC(C)(C)CO2)nn1 [Compound I-669] = > 75%
• Cc1cc(C#CC2CC2)cnc1-c1cn(CC2OCC3(CCC3)CO2)nn1 [Compound I-840] = > 75%
• Clc1cc(C#CC2CC2)cnc1-c1cn(CC2OCC3(CCC3)O2)nn1 (stereo not drawn) [Compound I-806] = > 75%
• CC(=O)c1ccc(C)c(N(C)c2cn(CC3OCC(C)(C)CO3)nn2)c1 [Compound I-825] = > 75%
• Cc1cc(NC(=O)CC2CC2)ccc1-c1cn(CC2CCCCO2)nn1 (stereo not drawn) [Compound I-358] = ≤ 25%
• CN(C)c1cc(N2CCOCC2)ccc1-c1cn(CC2OCC(C)(C)CO2)nn1 [Compound I-863] = > 75%
• CC1(C)COC(Cn2cc(-c3ccc(N4CC(C)(CO)C4)cc3CC(F)(F)F)nn2)C1 (stereo not drawn) [Compound I-740] = > 75%
• Cc1ccc(C#CC2CC2)cc1N(C)c1cn(CC2OCC3(CC3)CO2)nn1 [Compound I-842] = 50 to 75%
• C(#CC1CC1)c1cnc(-c2cn(CC3OCC4(CC4)CO3)nn2)c(OC2CC2)c1 [Compound I-785] = > 75%
• Cc1ccc(C#CC2CC2)cc1-c1cn(Cc2ncccn2)nn1 [Compound I-293] = > 75%
• Cc1cc(C#CC2CC2)ccc1-c1cn(CC2CCC(=O)N2)nn1 (stereo not drawn) [Compound I-542] = ≤ 25%
• CC(C)Oc1cc(N2CC(C)(CO)C2)cnc1-c1cn(CC2OCC3(CCC3)O2)nn1 (stereo not drawn) [Compound I-809] = > 75%
• CCN(CC)c1cc(N2CC(C)(CO)C2)c(F)cc1-c1cn(CC2OCC3(CC3)CO2)nn1 [Compound I-801] = > 75%
• Cc1ccccc1C#Cc1cn(CC2OCC(C)(C)CO2)nn1 [Compound I-791] = > 75%
• Cc1ccc(C#CC2CC2)cc1C(CC1CC1)c1cn(CC2OCC(C)(C)CO2)nn1 (stereo not drawn) [Compound I-714] = > 75%
